Cited source: PubChem BioAssay AID1508612

Let's look at some compounds and their measured Papp.
- ASSAY INFO: passive permeability, PAMPA, ADME assay (AID 1508612)
- SETTINGS: pH 7.4, 30.0 min, 50.0 µM

COMPOUND: CC(=O)c1c(C)[nH]c(C(=O)Nc2cccc([S+](=O)([O-])Nc3ccccn3)c2)c1C
QUALIFIER SIGN: =
Papp [×10⁻⁶ cm/s]: 11.6
--
COMPOUND: CC(=O)Nc1ncc(S(=O)(=O)N2CCOCC2)s1
QUALIFIER SIGN: =
Papp [×10⁻⁶ cm/s]: 37.9
--
COMPOUND: COc1cc(-c2nc(-c3ccccc3)c(-c3cccs3)[nH]2)cc(OC)c1O
QUALIFIER SIGN: =
Papp [×10⁻⁶ cm/s]: 530
--
COMPOUND: CCC(CC)c1cc([C@H]2CN3CC[C@H]2C[C@@H]3CNC(=O)Cc2cccs2)nc(-c2ccncc2)n1
QUALIFIER SIGN: =
Papp [×10⁻⁶ cm/s]: 448
--
COMPOUND: COc1cc(N2CCC(N3CCN(C)CC3)CC2)ccc1Nc1ncc(Cl)c(Nc2ccccc2P(C)(C)=O)n1
QUALIFIER SIGN: =
Papp [×10⁻⁶ cm/s]: 266
--
COMPOUND: Cc1ccc(S(=O)(=O)Nc2ccccc2C(=O)Nc2nc(-c3ccccc3)c(C)s2)cc1
QUALIFIER SIGN: =
Papp [×10⁻⁶ cm/s]: 30.1
--
COMPOUND: Cc1ccc2oc(NC3=NC(c4[nH]ncc4Cl)C4=C(CCCC4=O)N3)nc2c1 (centres undefined)
QUALIFIER SIGN: =
Papp [×10⁻⁶ cm/s]: 1000
--
COMPOUND: CC1=C(C(=O)NC2CCCC2)C(c2nn(C)cc2Cl)N=C(Nc2nc3ccccc3o2)N1 (centres undefined)
QUALIFIER SIGN: >
Papp [×10⁻⁶ cm/s]: 1000
--
COMPOUND: COC(=N)c1nc2ccc3ncnc(Nc4ccc(F)cc4Br)c3c2s1
QUALIFIER SIGN: =
Papp [×10⁻⁶ cm/s]: 28
--
COMPOUND: CCOc1cc2c(cc1OCC)CN(C(=O)c1cc3sccc3n1Cc1ccccc1)CC2
QUALIFIER SIGN: >
Papp [×10⁻⁶ cm/s]: 1000
--
COMPOUND: Cc1ccc(S(=O)(=O)Nc2cnccc2C(=O)Nc2nc(-c3cc4ccccc4o3)cs2)cc1
QUALIFIER SIGN: =
Papp [×10⁻⁶ cm/s]: 2.48
--
COMPOUND: CCN(CC)CCCCNc1ncc2cc(-c3c(Cl)cccc3Cl)c(NC(=O)NC(C)(C)C)nc2n1
QUALIFIER SIGN: >
Papp [×10⁻⁶ cm/s]: 1000
--
COMPOUND: Cc1ccc2c(c1)/C(=C\c1cc(Cl)c(O)c(Cl)c1)C(=O)N2
QUALIFIER SIGN: =
Papp [×10⁻⁶ cm/s]: 97.5
--
COMPOUND: O=C(NC1CC1)c1ccc(CSCc2ccccc2Cl)o1
QUALIFIER SIGN: =
Papp [×10⁻⁶ cm/s]: 758
